The reader will find reported melting point values listed item by item below.
OBSERVED_PROPERTY: melting point

# COMPOUND, OBSERVED_PROPERTY, TEST_VALUE
measured = [
    ("N#Cc1cc(O)cc2nc(-c3ccc(O)cc3)oc12", "melting point", "180 to 183 °C"),
    ("O=C1c2cc(Cl)ccc2COc2ccccc21", "melting point", "82 to 83 °C"),
    ("CC(C)(C)OC(=O)c1cn(-c2ccc(Cl)cc2)c(-c2ccc(Cl)cc2Cl)n1", "melting point", "179 to 181 °C"),
    ("O=C(C1CCCCC1)N1CC(=O)N2CCCc3ccccc3C2C1 (stereo not given)", "melting point", "187 to 190 °C"),
    ("CCC(C(O)c1ccc(Cl)cc1)n1ncn(-c2ccc(N3CCN(c4nc5ccccc5o4)CC3)cc2)c1=O (stereo not given)", "melting point", "221 °C"),
    ("COC(=O)c1ccc(C(=O)C2C(=O)N(C(N)=O)c3ccc(Cl)cc32)s1 (stereo not given)", "melting point", "219 to 221 °C"),
    ("Cc1c(C=NO)c2cc(F)ccc2n1-c1ccc(O)cc1", "melting point", "162 to 163 °C"),
    ("COC(=O)c1cc2cc3[nH]c(=O)oc3cc2[nH]1", "melting point", "267 to 277 °C"),
    ("CS(=O)(=O)c1cc(C(=O)N=C(N)N)ccc1N1CCC(N)CC1", "melting point", "239 to 241 °C"),
    ("CCCCOC(=O)Nc1nc2ccccc2c2c1nc(CC)n2CCCCNS(C)(=O)=O", "melting point", "164 to 166 °C"),
]

###

The reader will find reported melting point values listed item by item below.

# COMPOUND, melting point
records = [
    ("COc1ccc(O)c(CSc2nc(C)cn2C)c1", "111 to 112 °C"),
    ("COc1ccc(-c2ccccc2C(SCC(=O)c2ccccc2)C(O)C(N)=O)cc1 (stereo not given)", "132 to 134 °C"),
    ("Nc1nccc(Oc2ccc3c(c2)CCCN3)n1", "180 to 182 °C"),
    ("O=c1[nH]c2cc(Cl)ccc2n1C1CCN(Cc2ccnc(-c3ccc(Cl)cc3)c2)CC1", "186 to 188 °C"),
    ("CCOC(=O)C(=O)Cc1ccc(C#N)cc1[N+](=O)[O-]", "118 °C"),
]

###

The reader will find reported melting point values listed item by item below.
OBSERVED_PROPERTY: melting point

# COMPOUND, OBSERVED_PROPERTY, TEST_VALUE
measured = [
    ("CCCOc1ccccc1-c1ncc(N)c(=O)[nH]1", "melting point", "157 to 158 °C"),
    ("CC1CC(C)(C)C(=O)C(C(=O)c2ccc(OC(F)F)cc2[N+](=O)[O-])C1=O (stereo not given)", "melting point", "108 to 110 °C"),
    ("Cn1cc(-c2cc3cccnc3[nH]2)c2cc(C(=O)NC(CO)(CO)CO)ccc21", "melting point", "205 to 206 °C"),
    ("CCC(=O)N(C)c1nc(Cl)c([N+](=O)[O-])s1", "melting point", "132 to 133 °C"),
    ("COc1ccc(-c2cc3ncnc(Nc4ccc5[nH]ccc5c4)c3s2)cn1", "melting point", "243 to 249 °C"),
]

###

The reader will find reported melting point values listed item by item below.

# MOLECULE, melting point
rows = [
    ("O=C(O)c1ccc(CNC(=O)C2Cc3ccccc3N2S(=O)(=O)c2ccc(-c3ccc(F)cc3OC(F)F)cc2)cc1 (centres undefined)", "92 to 97 °C"),
    ("CCOC(=O)NNC1=Nc2sc(CC)cc2C(c2ccccc2Cl)=NC1", "207 °C"),
    ("CC[C@@H]1O[C@](/C=C/C2CC2)(C(F)(F)F)c2cc(F)ccc2NC1=O (relative stereo)", "148 to 149 °C"),
    ("O=C1C(Cc2ccncc2)c2ccccc2N1N1CCCCC1 (centres undefined)", "83 to 86 °C"),
]

###

The reader will find reported melting point values listed item by item below.
OBSERVED_PROPERTY: melting point

# COMPOUND, OBSERVED_PROPERTY, TEST_VALUE
measured = [
    ("CCC(C1CCCC1)C(O)(c1ccc(O)cc1)c1ccc(OCCN(C)C)cc1 (configuration not stated)", "melting point", "112 to 120 °C"),
    ("N#Cc1ccc(-c2ccoc2)cc1", "melting point", "55 to 57 °C"),
    ("COC1C=C(C)C(=O)CC(C)(C)C1OC(=O)c1ccccc1 (configuration not stated)", "melting point", "91.5 to 93.5 °C"),
    ("O=S(c1[nH]c(Br)c(Br)c1-c1ccc(Cl)cc1)C(F)(F)F (configuration not stated)", "melting point", "166 to 168 °C"),
    ("CCOC(=O)C1(CS(=O)(=O)c2ccc(OC)cc2)CO1 (configuration not stated)", "melting point", "77 to 79 °C"),
    ("COc1ccc(C(=O)c2ccc(CBr)cc2)cc1", "melting point", "76 to 78 °C"),
    ("CCn1c(=O)c2c(nc(/C=C/c3cccc(OC)c3)n2C)n(CC)c1=O", "melting point", "153 to 155 °C"),
    ("O[C@H](CCc1cccnc1)COc1ccc(-c2nnco2)cc1", "melting point", "130 to 133 °C"),
    ("N#Cc1cccc(-c2ccc3c(Cl)c[nH]c(=O)c3c2)c1", "melting point", "> 300 °C"),
    ("O=C(O)c1ccc(NCCCCCCOc2ccc3ccccc3c2)cc1", "melting point", "157 to 159 °C"),
    ("O=S(c1ccc(/C=C/c2nc(COc3ccc(CCCCn4ccnn4)cc3)co2)cc1)C(F)(F)F (configuration not stated)", "melting point", "122 to 123 °C"),
    ("O=C(O)c1ccccc1OCCCc1cc(-c2ccc(C(F)(F)F)cc2)no1", "melting point", "132 to 133 °C"),
    ("CN(Cc1cccc2c1C(=O)N(C1CCC(=O)NC1=O)C2=O)C(=O)Nc1cccc(Cl)c1 (configuration not stated)", "melting point", "193 to 195 °C"),
    ("CC(C)(C)OC(=O)COc1ccc2c3c(ccc2c1)OC(=O)CC3", "melting point", "95 to 96 °C"),
    ("CCOC(=O)c1nc(CCS(=O)(=O)c2ccc(Cl)cc2)no1", "melting point", "115 to 119 °C"),
    ("CC(=O)NC1C(Cl)OC(COC(C)=O)C(OC(C)=O)C1OC(C)=O (configuration not stated)", "melting point", "143 °C"),
    ("CC(C)(C(=O)O)c1ccc(CCl)cc1", "melting point", "121 to 122 °C"),
    ("O=C(O)c1cc([N+](=O)[O-])cc2c1CCCC2", "melting point", "209 to 212 °C"),
    ("O=C1CCc2ccc3ncoc3c21", "melting point", "188 to 190 °C"),
    ("CC(C)(C)c1cc(C(=O)Nc2ccc(C(=O)O)cc2)cc(C(C)(C)C)c1O", "melting point", "160 to 162 °C"),
    ("Cc1cc(C(=O)O)ccc1C1=CCCc2ccccc21", "melting point", "173 °C"),
    ("CC(C)(CCC#N)c1ccc(C(=O)Nc2cn3cc(C(F)(F)F)ccc3n2)cc1", "melting point", "233 to 234 °C"),
    ("Cc1c(C)n(CC(F)(F)F)c2c(OCc3ccccc3)nncc12", "melting point", "83 to 84 °C"),
    ("O=C1Nc2cc(Cl)ccc2C1c1ncnc2nn(C3CCCCC3)cc12 (configuration not stated)", "melting point", "299 to 303 °C"),
    ("CCOC=Nc1ccc2nnc(-c3ccc([N+](=O)[O-])s3)n2n1", "melting point", "180 to 182 °C"),
    ("O=C(Nc1ccccc1-n1cccn1)c1cccc2c1C(=O)c1ccccc1-2", "melting point", "164 to 166 °C"),
    ("Cc1ccc(S(=O)(=O)C[C@H]2CN3C(=O)C[C@@H]3O2)cc1 (racemic)", "melting point", "120 to 121 °C"),
    ("CC1Cc2cccc(S(=O)(=O)NC(C)(C)C)c2S1 (configuration not stated)", "melting point", "97 to 98 °C"),
    ("Nc1cc(-c2noc(-c3cnn4c(C(F)(F)F)cc(-c5ccc(C(F)(F)F)cc5)nc34)n2)ccn1", "melting point", "277 °C"),
    ("Cc1cccc2c1CCC(=NO)C2(O)C(F)(F)F (configuration not stated)", "melting point", "154 to 156 °C"),
    ("CC1(C)COC(=O)N1Cc1ccccc1[N+](=O)[O-]", "melting point", "103 to 106 °C"),
    ("CCCCC(=O)Nc1cccc2c1C1(COc3cc4c(cc31)OCCO4)C(=O)N2C (configuration not stated)", "melting point", "182 to 183 °C"),
    ("CCOC(=O)Cn1c(=O)sc2cccc(Oc3ccccc3)c21", "melting point", "96 to 99 °C"),
    ("CCOC(=O)c1c(Nc2ccccc2SC)n[nH]c1C", "melting point", "135 to 158 °C"),
    ("CCOC(=O)c1cc(Oc2cc(Cl)c(Cl)cc2Cl)ccc1[N+](=O)[O-]", "melting point", "99 to 102 °C"),
    ("CCc1ccc(Nc2nc3cc(NC(=O)c4ccccc4)ccc3o2)cc1", "melting point", "239 to 240 °C"),
    ("CCOC(=O)OC1=C(c2cc(C)ccc2C)C(=O)NC1CC1CCS(=NC#N)CC1 (configuration not stated)", "melting point", "103 to 105 °C"),
    ("Cc1ccc(-n2cccc2)c(N)c1", "melting point", "89 to 90 °C"),
    ("CCCCOc1nc(N)c2nc(OC)n(CCCCNCCOC)c2n1", "melting point", "99 to 100 °C"),
    ("CCOC(=O)c1ccc(C(F)(F)F)c(OC2CCOC2)n1 (configuration not stated)", "melting point", "45 to 45.5 °C"),
    ("BrCCc1c[nH]c2ccccc12", "melting point", "57 to 60 °C"),
    ("CCCOCCOc1ccc(-c2ccc3c(c2)C=C(C(=O)O)CCCN3CC(C)C)cc1", "melting point", "142 to 144 °C"),
]
